Molecular target: L-lactate dehydrogenase (Plasmodium falciparum (isolate CDC / Honduras))
Test: PfLDH activity inhibition – cell lysate, 3D7 strain, counter-screen for P. falciparum growth inhibition project (AID 2304);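 further: 0% = vehicle and 100% = reference inhibitor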
Settings: P. falciparum 3D7 crude extract, LDH APAD/NBT absorbance; at 2 µM; stronger effect = higher value

| compound | scale unit | inhibition |
| --- | --- | --- |
| COC(=O)Cc1ccc(N)c2ccccc12 | % | -1 |
| CN1CCCN(Cc2cccc(-c3cccc(NC(=O)c4ccc(C#N)cc4)c3)c2)CC1 | % | 1 |
| CCCNC(=O)C1CCN(C(c2ccc(Cl)cc2)c2ccc(Cl)cc2)CC1 | % | 4 |
| O=C(Nc1ccc(Cl)c(Cl)c1)N[C@H]1CCN(CCCCCNC(=O)[C@@H]2C[C@H]2c2ccc(Cl)c(Cl)c2)C1 | % | 3 |
| COc1ccc(OCCCCON2C(N)=NC(N)=NC2(C)C)cc1 | % | 4 |
| Cc1cccc2[nH]c(-c3ccc(-c4cccc(CNCCCN5CCCC5=O)c4)cc3)nc12 | % | -8 |
| COc1ccc(C(=O)NCc2ccccc2-c2ccc(C(C)(C)C)cc2)cc1O | % | 1 |
| Cc1ccc(Cn2nc(Cl)c(N3CCCNCC3)cc2=O)cc1NC(=O)Nc1ccc(-c2ccccc2)cc1 | % | -1 |
| Cc1ccc(CNC(=O)c2ccc(CN3CCCN(Cc4ccsc4)CC3)cc2)cc1 | % | 5 |
| c1ccc(-c2cc(NCCCCNc3cc(-c4ccccc4)nc4ccccc34)c3ccccc3n2)cc1 | % | 0 |
| Cc1ccc(CCC(C)NCC(O)c2cccc(Cl)c2)cc1 (stereo not given) | % | -4 |
| CCCCCCN1CCC(NCc2cccc(-n3ccnc3)c2)CC1 | % | 5 |
| FC(F)(F)c1ccc2nc(-c3ccc(-c4cccc(CNCCc5cccnc5)c4)s3)[nH]c2c1 | % | -3 |
| Clc1ccc(-c2cc(-c3csc(Nc4ccncc4)n3)on2)cc1 | % | 3 |
| CN(C(=O)/C=C/c1cc(C(F)(F)F)ccc1F)C1CCN(CCCCCNC(=O)/C=C/c2ccc(Cl)c(Cl)c2)C1 (stereo not given) | % | -3 |
| O=S(=O)(c1ccc(OCc2ccc(Cl)cc2)cc1)c1cc2c(cc1OCc1ccccc1)CCN(C1CCC1)CC2 | % | 6 |
| N#Cc1ccc(CN2CCCN(Cc3cccc(NC(=O)c4ccc(-c5ccccc5)cc4)c3)CC2)cc1 | % | 0 |
| O=C(NC1CCN(CCN2CCC(c3c[nH]c4ccccc34)CC2)CC1)c1ccc(-c2ccc(C(F)(F)F)cc2)cc1 | % | 4 |
| Cc1cc(-c2ccc3c(c2)CCN(CCC2CCC(NC(=O)/C=C/c4ccc(F)cc4)CC2)CC3)on1 (stereo not given) | % | -4 |
| COc1ccc2ncc(F)c(CCN3[C@@H]4CC[C@H]3CC(NCc3ccc5c(c3)OCCO5)C4)c2n1 (stereo not given in full) | % | -5 |
| CCN(CCCN1CCCCC1)c1cc(C)nc(Nc2cc(C(F)(F)F)ccc2C)n1 | % | -2 |
| OCCNc1nc(Nc2ccc(F)cc2)nc2ccccc12 | % | 3 |
| O=C(CCC1CCCC1)N(Cc1ccc(-c2ccc(CNCCc3ccccn3)cc2)cc1)CC1CCCCN1 (stereo not given) | % | 0 |
| CCNc1cc(C)nc(Nc2ccc(C)cc2)n1 | % | 3 |
| CC1(C)N=C(N)NC(Nc2ccc(F)c(F)c2)=N1 | % | -10 |
| c1ccc(-c2nc3ccccc3[nH]2)c(Nc2ccnc3cc(-c4nccs4)ccc23)c1 | % | 3 |
| Cc1cccc2[nH]c(-c3cccc(-c4cccc(NC(=O)c5cccnc5Cl)c4)c3)nc12 | % | 0 |
| COc1cc(-c2ccc(-c3cnc(N)nc3OC)[nH]2)cc(OC)c1OC | % | -2 |
| Clc1ccc(NC(=NCCCCCCCN=C(Nc2ccc(Cl)cc2)Nc2ccc(Cl)cc2)Nc2ccc(Cl)cc2)cc1 | % | 0 |
| Cc1cc(N2CCN(CC3CCN(C)CC3)CC2)nc(Nc2ccc(Br)cc2)n1 | % | 5 |
| COc1ccccc1CCNc1nc(C)cc(NCCC(=O)NCCOc2ccccc2)n1 | % | -3 |
| Cc1cccc2[nH]c(-c3ccc(-c4cccc(CN5CCC(N)C5)c4)s3)nc12 (stereo not given) | % | 1 |
| Cc1noc(C)c1-c1ccc2c(Nc3ccc(Cl)cc3)c(C(N)=O)cnc2c1 | % | 7 |
| Oc1cccc(Nc2nc(NCc3ccccc3)c3ccccc3n2)c1 | % | -7 |
| NC(=O)c1cc(-c2ccccc2)cc2c(C3CCC(NCc4ccccc4)C3)c[nH]c12 (stereo not given) | % | -7 |
| CN1CCCc2ccc(NC(=O)Nc3ccc(-c4ccccc4)cc3)cc2C1 | % | 0 |
| CC(=O)c1c(CC(=O)O)c2ccccc2n1O | % | -3 |
| CC(C)N(Cc1ccc(-c2ccc(C(F)(F)F)cc2)cc1)C(=O)Cn1c(CCc2cccc(F)c2F)cc(=O)c2ccc(CCCN3CCCCC3)cc21 | % | 7 |
| Cc1cc(NN=Cc2ccccn2)c2cc(C(F)(F)F)ccc2n1 | % | -4 |
| CCc1ccc(CN2CCC(CNC(=O)c3cc(-c4ccccc4Cl)cs3)C2)cc1 (stereo not given) | % | -2 |

----------
Biological target: Calcium-dependent protein kinase 4 (Plasmodium falciparum (isolate 3D7)) (UniProt Q8IBS5)
Sequence (Q8IBS5 whole entry, looked up): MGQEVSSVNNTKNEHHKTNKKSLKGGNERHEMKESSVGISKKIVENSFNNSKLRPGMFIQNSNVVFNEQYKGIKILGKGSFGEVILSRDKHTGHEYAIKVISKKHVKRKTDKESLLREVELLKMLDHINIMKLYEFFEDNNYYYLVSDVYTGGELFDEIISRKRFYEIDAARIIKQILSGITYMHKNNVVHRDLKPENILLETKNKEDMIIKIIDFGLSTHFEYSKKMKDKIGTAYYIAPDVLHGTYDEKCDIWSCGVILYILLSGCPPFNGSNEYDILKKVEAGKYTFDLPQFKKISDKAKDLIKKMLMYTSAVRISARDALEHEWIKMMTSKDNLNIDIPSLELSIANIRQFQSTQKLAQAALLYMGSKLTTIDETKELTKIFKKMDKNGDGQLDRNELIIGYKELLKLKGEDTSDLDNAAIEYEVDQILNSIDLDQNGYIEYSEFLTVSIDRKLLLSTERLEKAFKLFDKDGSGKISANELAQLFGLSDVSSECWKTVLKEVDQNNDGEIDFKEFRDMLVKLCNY
Assay: PfCDPK4 kinase inhibitors, biochemical, TCAMS library (AID 1159588)
Conditions: recombinant PfCDPK4, Kinase-Glo ATP depletion luminescence
Entries with a potency or affinity are not part of this list. Activity calls are given as the source filed them. The limit is not given here; nearly all actives have IC50 up to about 0.91 µM.

| molecule | system | outcome |
| --- | --- | --- |
| Cc1cc(C)cc(CC(=O)N2CCC(n3c(C)nc4ccc(C)cc43)CC2)c1 | Calcium-dependent protein kinase 4 (Plasmodium falciparum (isolate 3D7)) (UniProt Q8IBS5) | inactive |
| CN1CCN(c2ccnc3ccc(NC(=O)Cc4ccc5ccccc5c4)cc23)CC1 | Calcium-dependent protein kinase 4 (Plasmodium falciparum (isolate 3D7)) (UniProt Q8IBS5) | inactive |
| NCCCNc1ccc(-c2ccc(NC(=O)Nc3cc(C(F)(F)F)ccc3F)cc2)cn1 | Calcium-dependent protein kinase 4 (Plasmodium falciparum (isolate 3D7)) (UniProt Q8IBS5) | inactive |
| COc1ccc2nc(-c3ccc(C(=O)NCCCN4CCN(c5cc(Cl)ccc5OC)CC4)cc3OC)[nH]c2c1 | Calcium-dependent protein kinase 4 (Plasmodium falciparum (isolate 3D7)) (UniProt Q8IBS5) | inactive |
| O=C(O)C[C@H](NC(=O)[C@@H]1CCCN1C(=O)c1cccc(-c2ccc(Cl)c(Cl)c2)c1)C(=O)O | Calcium-dependent protein kinase 4 (Plasmodium falciparum (isolate 3D7)) (UniProt Q8IBS5) | inactive |
| Cn1nccc1C(=O)NCCNCc1ccc(-c2ccc(-c3nc4ccc(F)cc4[nH]3)cc2)cc1 | Calcium-dependent protein kinase 4 (Plasmodium falciparum (isolate 3D7)) (UniProt Q8IBS5) | inactive |
| CCCCCCN1CCC(CNCc2cccc(Cl)c2)CC1 | Calcium-dependent protein kinase 4 (Plasmodium falciparum (isolate 3D7)) (UniProt Q8IBS5) | inactive |
| Oc1cccc(Nc2nc(NCc3ccco3)c3ccccc3n2)c1 | Calcium-dependent protein kinase 4 (Plasmodium falciparum (isolate 3D7)) (UniProt Q8IBS5) | inactive |
| C[C@@H](CC1CCCCC1)NCc1cccc(NS(=O)(=O)c2ccc(O)c(-c3ccno3)c2)c1 | Calcium-dependent protein kinase 4 (Plasmodium falciparum (isolate 3D7)) (UniProt Q8IBS5) | inactive |
| O=C(Cn1c(CCc2cccc(F)c2F)nc(=O)c2ccccc21)N(Cc1ccc(-c2ccc(C(F)(F)F)cc2)cc1)C1CCN(C2CCOCC2)CC1 | Calcium-dependent protein kinase 4 (Plasmodium falciparum (isolate 3D7)) (UniProt Q8IBS5) | inactive |
| CN(CCCN(C)c1cc(NC(=O)c2cccc(F)c2)ccn1)Cc1cccc(O)c1 | Calcium-dependent protein kinase 4 (Plasmodium falciparum (isolate 3D7)) (UniProt Q8IBS5) | inactive |
| O=C(Nc1ccc(-c2cccc(-c3nc4ccc(F)cc4[nH]3)c2)cc1)Nc1ccsc1 | Calcium-dependent protein kinase 4 (Plasmodium falciparum (isolate 3D7)) (UniProt Q8IBS5) | inactive |
| OC1CCN(c2cc(-c3ccccn3)nc(-c3ccccn3)n2)CC1 | Calcium-dependent protein kinase 4 (Plasmodium falciparum (isolate 3D7)) (UniProt Q8IBS5) | inactive |
| N#CC(c1ccc(Cl)cc1)c1ccc2c(C(F)(F)F)cc(C(F)(F)F)nc2n1 (centres undefined) | Calcium-dependent protein kinase 4 (Plasmodium falciparum (isolate 3D7)) (UniProt Q8IBS5) | inactive |
| CCNc1cc(C(=O)N[C@@H](Cc2ccccc2)[C@H](O)CNC2(C)CCCCC2)cc(N2CCCCS2(=O)=O)c1 | Calcium-dependent protein kinase 4 (Plasmodium falciparum (isolate 3D7)) (UniProt Q8IBS5) | inactive |
| CC1CN(CC(O)Cn2c3ccc(Br)cc3c3cc(Br)ccc32)CC(C)O1 (centres undefined) | Calcium-dependent protein kinase 4 (Plasmodium falciparum (isolate 3D7)) (UniProt Q8IBS5) | inactive |
| Cc1ccccc1C(=O)Nc1cccc(-c2nc3ncccn3c2C)c1 | Calcium-dependent protein kinase 4 (Plasmodium falciparum (isolate 3D7)) (UniProt Q8IBS5) | inactive |
| CC1CN=C(c2cccc(NC(=O)Nc3cccc(C4=NCC(C)N4)c3)c2)N1 (centres undefined) | Calcium-dependent protein kinase 4 (Plasmodium falciparum (isolate 3D7)) (UniProt Q8IBS5) | inactive |
| N/C(=N\c1ncccn1)Nc1cccc(Cc2ccccc2)n1 | Calcium-dependent protein kinase 4 (Plasmodium falciparum (isolate 3D7)) (UniProt Q8IBS5) | inactive |
| CC[C@H](C)CNC(=O)c1cncc(-c2cccc(CNC3Cc4ccccc4C3)c2)c1 | Calcium-dependent protein kinase 4 (Plasmodium falciparum (isolate 3D7)) (UniProt Q8IBS5) | inactive |
| Cc1ccc(OCC2CCN(c3ncc(C(=O)NCCCN4CCCC4=O)cc3Cl)CC2)cc1 | Calcium-dependent protein kinase 4 (Plasmodium falciparum (isolate 3D7)) (UniProt Q8IBS5) | inactive |
| CSc1ccc2ccccc2c1CCNCCCCNCCc1c(SC)ccc2ccccc12 | Calcium-dependent protein kinase 4 (Plasmodium falciparum (isolate 3D7)) (UniProt Q8IBS5) | inactive |
| CC(OC(=O)c1ccc(C(=O)NCC2CC2)cc1)C(C)(C)C (centres undefined) | Calcium-dependent protein kinase 4 (Plasmodium falciparum (isolate 3D7)) (UniProt Q8IBS5) | inactive |
| O=C(NCCN1CCOCC1)c1ccc(CNC(=O)c2ccc(O)c(-c3ccc(Cl)c(Cl)c3)c2)cc1 | Calcium-dependent protein kinase 4 (Plasmodium falciparum (isolate 3D7)) (UniProt Q8IBS5) | inactive |
| COc1ccc2nccc([C@@H](O)CN3CCC(NC(=O)/C=C/c4ccc5cc(C)[nH]c5c4)CC3)c2c1 | Calcium-dependent protein kinase 4 (Plasmodium falciparum (isolate 3D7)) (UniProt Q8IBS5) | inactive |
| Clc1ccc(-c2cc(-c3csc(NCCN4CCOCC4)n3)on2)c(Cl)c1 | Calcium-dependent protein kinase 4 (Plasmodium falciparum (isolate 3D7)) (UniProt Q8IBS5) | inactive |
| CC1(C)N=C(N)N=C(N)N1OCCCNC(=O)c1ccc(C(=O)NCCCON2C(N)=NC(N)=NC2(C)C)cc1 | Calcium-dependent protein kinase 4 (Plasmodium falciparum (isolate 3D7)) (UniProt Q8IBS5) | inactive |
| CC(C)(CNC(=O)[C@@H]1CCCN(CCOc2ccc(Cl)cc2)C1)c1nc(-c2ccc(Cl)c(O)c2)c(-c2ccncc2)[nH]1 | Calcium-dependent protein kinase 4 (Plasmodium falciparum (isolate 3D7)) (UniProt Q8IBS5) | inactive |
| Cc1cccc(Cn2c(Cc3ccccc3)nnc2Sc2ccc([N+](=O)[O-])c(C#N)c2)c1 | Calcium-dependent protein kinase 4 (Plasmodium falciparum (isolate 3D7)) (UniProt Q8IBS5) | inactive |
| CN(c1ccccc1C(=O)Nc1cc(Cl)ccc1Oc1ccccc1)S(=O)(=O)c1ccccc1 | Calcium-dependent protein kinase 4 (Plasmodium falciparum (isolate 3D7)) (UniProt Q8IBS5) | inactive |
| Cc1cc(N[C@@H](CC(C)C)C(=O)NCCOc2ccccc2)nc(NCCc2ccccc2)n1 | Calcium-dependent protein kinase 4 (Plasmodium falciparum (isolate 3D7)) (UniProt Q8IBS5) | inactive |
| Oc1ccc(CCNCCCCCCNCCCc2ccc(Cl)cc2)cc1O | Calcium-dependent protein kinase 4 (Plasmodium falciparum (isolate 3D7)) (UniProt Q8IBS5) | inactive |
| CCn1c(=O)c(C(=O)Nc2cc(Cl)c(OC)cc2OC)nc2ccccc21 | Calcium-dependent protein kinase 4 (Plasmodium falciparum (isolate 3D7)) (UniProt Q8IBS5) | inactive |
| O=C(NCCCCN1CCC(c2ccc3c(c2OCC(O)c2ccc(Cl)cc2)CCCC3)CC1)c1ccc(-c2ccc(C(F)(F)F)cc2)cc1 (centres undefined) | Calcium-dependent protein kinase 4 (Plasmodium falciparum (isolate 3D7)) (UniProt Q8IBS5) | inactive |
| c1ccc(CN2CCc3cc4nccc(N5CCNCC5)c4cc32)cc1 | Calcium-dependent protein kinase 4 (Plasmodium falciparum (isolate 3D7)) (UniProt Q8IBS5) | inactive |
| Cn1cnc2c(SCc3ccccc3OCc3ccccc3)ncnc21 | Calcium-dependent protein kinase 4 (Plasmodium falciparum (isolate 3D7)) (UniProt Q8IBS5) | inactive |
| Oc1cc(Nc2ccnc3cc(I)ccc23)ccc1F | Calcium-dependent protein kinase 4 (Plasmodium falciparum (isolate 3D7)) (UniProt Q8IBS5) | inactive |
| COc1cc(Cc2cnc(N)nc2N)cc(CC(C)O)c1O (centres undefined) | Calcium-dependent protein kinase 4 (Plasmodium falciparum (isolate 3D7)) (UniProt Q8IBS5) | inactive |
| Cc1cc(N[C@@H](CC(C)C)C(=O)NCCc2ccccc2)nc(NCc2ccccc2C)n1 | Calcium-dependent protein kinase 4 (Plasmodium falciparum (isolate 3D7)) (UniProt Q8IBS5) | inactive |
